Field: Ki. System: Coagulation factor X (Homo sapiens, UniProt P00742). Provenance: assorted publications.
State just the number; it will be interpreted in nM.

With Coagulation factor X (Homo sapiens, UniProt P00742) as the test system, CN1CCN=C1c1cccc(Oc2nc(Oc3cc(C(=N)N)ccc3O)c(F)c(N3CCCC(C(=O)O)C3)c2F)c1 (stereo not given) showed Ki of 0.11

With Coagulation factor X (Homo sapiens, UniProt P00742) as the test system, "N=C(N)c1ccc2[nH]c(-c3cc(CC(=O)O)cc(Br)c3O)cc2c1" showed Ki of 43

With Coagulation factor X (Homo sapiens, UniProt P00742) as the test system, "N=C(N)c1ccc2nc(-c3cc(CCN)cc(-c4ccccc4)c3O)[nH]c2c1" showed Ki of 110

With Coagulation factor X (Homo sapiens, UniProt P00742) as the test system, "N=C(N)c1ccccc1" showed Ki of 165000

With Coagulation factor X (Homo sapiens, UniProt P00742) as the test system, "Cc1c(F)c(Oc2cccc(C(=N)N)c2)nc(Oc2cccc(C(=N)N)c2)c1F" showed Ki of 14
